Test system: Cryptosporidium parvum
Experiment: Antiparasitic activity against Cryptosporidium parvum assessed as parasitic growth inhibition measured for 24 hrs
Assay type: functional, organism-based
Entries and their pEC50 values follow.
Field pEC50 (float): negative decimal logarithm of the concentration in molar.

[[record]]
query_smiles = "C[C@H](NC(=O)Cc1cc(F)cc(F)c1)C(=O)N[C@H](C(=O)OC(C)(C)C)c1ccccc1"
readout_label = "pEC50"
data_value = 4.90


Prompt line: Look up pEC50 for this compound: `CC(C)[C@H](O)C(=O)N[C@@H](C)C(=O)N[C@@H]1C(=O)N(C)CCc2ccccc21`
Response line: 5.38

---

Tested on: Cryptosporidium parvum
Test: Antiparasitic activity against Cryptosporidium parvum infected in human HCT-8 cells assessed as parasitic growth inhibition measured for 48 hrs by fluorescence based microscopic analysis
Type: functional, organism-based
Conditions: HCT-8, time 48 hrs
Okay, here is how we bin by EC90: lowest = under 0.2 µM, middle = from 0.2 µM up to 1 µM, highest = 1 µM and over

Previously resolved entries follow.
[[record]]
query_smiles = "CN1C(=O)[C@@H](NC(=O)[C@H](CCC(F)(F)F)CC(=O)N2CCCCC2)N=C(c2ccccc2)c2ccc(Oc3ccccc3)cc21"
qualitative_label = "lowest"

[[record]]
query_smiles = "CN1C(=O)[C@@H](NC(=O)C[C@H](CCC(F)(F)F)C(N)=O)N=C(c2ccccc2)c2ccccc21"
qualitative_label = "highest"

[[record]]
query_smiles = "CN1C(=O)[C@@H](NC(=O)[C@H](CCC(F)(F)F)CC(=O)N2CCOCC2)N=C(c2ccccc2)c2ccccc21"
qualitative_label = "lowest"


Prompt line: Determine which band this compound sits in: `CN1C(=O)[C@H](NC(=O)[C@H](CCC(F)(F)F)CC(=O)N2CCCCC2)N=C(c2ccccc2)c2ccc(OC3COC3)cc21`
Response line: highest

Prompt line: Determine which band this compound sits in: `CN1C(=O)[C@@H](NC(=O)[C@H](CCC(F)(F)F)CC(N)=O)N=C(c2ccccc2)c2ccccc21`
Response line: highest

Prompt line: Determine which band this compound sits in: `CN1C(=O)[C@@H](NC(=O)[C@H](CCC(F)(F)F)CC(=O)N2CCCCC2)N=C(c2ccccc2)c2ccc(OC3CCC3)cc21`
Response line: lowest

Prompt line: Determine which band this compound sits in: `CCN(CC)C(=O)C[C@@H](CCC(F)(F)F)C(=O)N[C@H]1N=C(c2ccccc2)c2ccccc2N(C)C1=O`
Response line: middle

Prompt line: Determine which band this compound sits in: `CCCNC(=O)C[C@@H](CCC(F)(F)F)C(=O)N[C@H]1N=C(c2ccccc2)c2ccccc2N(C)C1=O`
Response line: lowest

Prompt line: Determine which band this compound sits in: `CN1C(=O)[C@@H](NC(=O)[C@H](CCC(F)(F)F)CC(=O)N2CCCCC2)N=C(c2ccccc2)c2cc(Cl)c(OC3COC3)cc21`
Response line: middle

Prompt line: Determine which band this compound sits in: `CCCNC(=O)C[C@H](CCC(F)(F)F)C(=O)N[C@H]1N=C(c2ccccc2)c2ccccc2N(C)C1=O`
Response line: highest

Prompt line: Determine which band this compound sits in: `CCCNC(=O)C[C@@H](CCC(F)(F)F)C(=O)N[C@H]1N=C(c2ccccc2)c2ccc(OC3COC3)cc2N(C)C1=O`
Response line: middle

---

Entries and their EC90 values follow.
Tested on: Cryptosporidium parvum
Experiment: Antiparasitic activity against Cryptosporidium parvum infected in human HCT-8 cells assessed as parasitic growth inhibition measured for 48 hrs by fluorescence based microscopic analysis
Type: functional, organism-based
Settings: HCT-8, time 48 hrs

These solved cases illustrate the format of a correct answer.
[[record]]
query_smiles = "CCCNC(=O)C(C)(C)CC(=O)N[C@H]1N=C(c2ccccc2)c2ccccc2N(C)C1=O"
study_system = "Cryptosporidium parvum"
readout_label = "EC90"
data_value = "> 25 µM"

[[record]]
query_smiles = "CCCNC(=O)[C@@H](CCC(F)(F)F)CC(=O)N[C@H]1N=C(c2ccccc2)c2ccccc2N(C)C1=O"
study_system = "Cryptosporidium parvum"
readout_label = "EC90"
data_value = "> 25 µM"


Now look at this entry.
Prompt line: Look up EC90 for this compound: `CCCNC(=O)C[C@@H](CCC(F)(F)F)C(=O)N[C@@H]1N=C(c2ccccc2)c2ccc(OC3COC3)cc2N(C)C1=O`
Response line: > 25 µM

---

Test system: Cryptosporidium parvum
Experiment: Antiparasitic activity against Cryptosporidium parvum infected in human HCT-8 cells assessed as parasitic growth inhibition measured for 48 hrs by fluorescence based microscopic analysis
Format: functional, organism-based
Settings: HCT-8, time 48 hrs
Readout Label: EC90

[[record]]
query_smiles = "CN1C(=O)[C@@H](NC(=O)[C@H](CCC(F)(F)F)CC(=O)N2CCCCC2)N=C(c2ccccc2)c2ccc(OC3COC3)cc21"
data_value = "210 nM"

[[record]]
query_smiles = "CN1C(=O)[C@H](NC(=O)[C@H](CCC(F)(F)F)CC(=O)N2CCCCC2)N=C(c2ccccc2)c2cc(Cl)c(OC3COC3)cc21"
data_value = "12800 nM"

[[record]]
query_smiles = "CCNC(=O)C[C@@H](CCC(F)(F)F)C(=O)N[C@H]1N=C(c2ccccc2)c2ccccc2N(C)C1=O"
data_value = "610 nM"


Now look at this entry.
Prompt line: Look up EC90 for this compound: `CCCNC(=O)CC(C)(C)C(=O)N[C@H]1N=C(c2ccccc2)c2ccccc2N(C)C1=O`
Response line: > 25000 nM
